- TARGET OF ASSAY: CYP2C19 (Homo sapiens, UniProt P33261)
- Sequence (P33261 whole entry): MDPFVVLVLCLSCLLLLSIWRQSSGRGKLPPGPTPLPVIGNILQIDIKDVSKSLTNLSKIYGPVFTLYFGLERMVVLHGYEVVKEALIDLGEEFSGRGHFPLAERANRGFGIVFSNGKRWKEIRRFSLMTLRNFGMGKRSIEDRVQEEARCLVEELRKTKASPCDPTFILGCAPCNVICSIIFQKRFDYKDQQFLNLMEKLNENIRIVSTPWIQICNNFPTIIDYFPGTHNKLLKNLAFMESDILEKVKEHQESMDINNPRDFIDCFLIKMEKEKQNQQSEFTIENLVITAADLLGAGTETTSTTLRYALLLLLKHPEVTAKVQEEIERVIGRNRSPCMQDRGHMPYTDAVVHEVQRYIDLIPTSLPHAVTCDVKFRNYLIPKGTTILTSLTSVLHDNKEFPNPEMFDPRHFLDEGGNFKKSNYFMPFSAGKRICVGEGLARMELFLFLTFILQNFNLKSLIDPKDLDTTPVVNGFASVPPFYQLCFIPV
REPORTED PROPERTY: IC50 (µM)
Answer format: numeric, µM implied, no suffix.

Req: What value of IC50 has been reported for the following molecule? CN1CCN(c2ccc(OC(F)(F)F)c(Nc3ncc4c(n3)-c3c(c(C(N)=O)nn3CCO)CC4)c2)CC1 [onvansertib]
Resp: 36.9

* * *

- TARGET OF ASSAY: UniProt P10632
- Sequence (P10632 whole entry): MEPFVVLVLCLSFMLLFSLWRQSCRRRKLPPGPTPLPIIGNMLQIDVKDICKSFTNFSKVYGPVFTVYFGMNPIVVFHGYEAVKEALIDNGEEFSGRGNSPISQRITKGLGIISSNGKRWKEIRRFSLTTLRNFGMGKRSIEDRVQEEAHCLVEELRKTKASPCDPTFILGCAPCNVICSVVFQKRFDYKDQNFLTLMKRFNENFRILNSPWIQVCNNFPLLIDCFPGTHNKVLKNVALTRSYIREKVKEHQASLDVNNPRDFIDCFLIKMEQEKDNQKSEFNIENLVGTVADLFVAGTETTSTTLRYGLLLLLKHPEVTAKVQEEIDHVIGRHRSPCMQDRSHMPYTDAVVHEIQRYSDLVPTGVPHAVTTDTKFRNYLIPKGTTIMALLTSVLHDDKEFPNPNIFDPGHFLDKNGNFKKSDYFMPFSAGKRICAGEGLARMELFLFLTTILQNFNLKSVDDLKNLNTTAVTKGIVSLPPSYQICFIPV
REPORTED PROPERTY: IC50 (µM)
Dear colleague, please return just the value in µM, with no unit written.

Req: Bench note: what IC50 did CN1CCN(c2ccc(OC(F)(F)F)c(Nc3ncc4c(n3)-c3c(c(C(N)=O)nn3CCO)CC4)c2)CC1 show?
Resp: 20.2

* * *

- TARGET OF ASSAY: CYP3A4 (Homo sapiens)
- Construct: was investigated using human liver microsomes; from tissue; host or cells: human liver microsomes
- Sequence (P08684 whole entry): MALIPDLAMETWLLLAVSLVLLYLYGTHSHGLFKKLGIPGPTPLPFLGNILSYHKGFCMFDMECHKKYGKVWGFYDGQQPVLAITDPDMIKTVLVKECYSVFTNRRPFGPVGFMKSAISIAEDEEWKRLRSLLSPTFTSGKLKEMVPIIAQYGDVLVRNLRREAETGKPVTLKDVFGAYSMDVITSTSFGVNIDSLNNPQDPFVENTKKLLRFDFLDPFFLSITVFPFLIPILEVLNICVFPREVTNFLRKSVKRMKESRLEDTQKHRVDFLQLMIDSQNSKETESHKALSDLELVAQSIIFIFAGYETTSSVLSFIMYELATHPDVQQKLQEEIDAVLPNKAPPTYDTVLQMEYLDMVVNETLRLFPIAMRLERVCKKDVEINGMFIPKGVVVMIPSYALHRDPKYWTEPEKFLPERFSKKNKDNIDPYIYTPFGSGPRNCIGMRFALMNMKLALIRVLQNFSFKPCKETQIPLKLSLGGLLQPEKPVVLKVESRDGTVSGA
- TEST DETAILS: Inhibition of human cytochrome P450s, human liver microsomes
- Assay type: in vitro ADME
- CONDITION: Midazolam l′-hydroxylation, mean ± SEM
REPORTED PROPERTY: pIC50
pIC50 (log units): -log10 of the concentration in mol/L.

Req: Look up pIC50: CN1CCN(c2ccc(OC(F)(F)F)c(Nc3ncc4c(n3)-c3c(c(C(N)=O)nn3CCO)CC4)c2)CC1
Resp: 4.18

* * *

- TEST DETAILS: Pharmacokinetics from the prior phase 1 trial
- Type: in vivo
- CONDITION: human, plasma, oral; 24 mg/m^2 dose; 0.1 ng/ml is the limit of quantitation; read-out: drug concentrations at 290 hours (˜12 days)
REPORTED PROPERTY: concentration at 290 h

Req: Can you share its concentration at 290 h? I mean this molecule: CN1CCN(c2ccc(OC(F)(F)F)c(Nc3ncc4c(n3)-c3c(c(C(N)=O)nn3CCO)CC4)c2)CC1 [onvansertib]
Resp: < 0.1 ng/mL

* * *

- TARGET OF ASSAY: CYP3A4 (Homo sapiens)
- Construct: was investigated using human liver microsomes; from tissue; host or cells: human liver microsomes
- TEST DETAILS: Inhibition of human cytochrome P450s, human liver microsomes
- Format: in vitro ADME
- CONDITION: Testosterone 6β-hydroxylation, mean ± SEM
REPORTED PROPERTY: IC50 (µM)
Response body: numeric value in µM, unit text excluded.

Req: Could you share which IC50 value was measured for CN1CCN(c2ccc(OC(F)(F)F)c(Nc3ncc4c(n3)-c3c(c(C(N)=O)nn3CCO)CC4)c2)CC1 [onvansertib] ?
Resp: 52.7
